target: TYK2 (Homo sapiens, UniProt P29597); test: TYK2 kinase inhibition (Table A1); assay type: biochemical
Sequence (P29597 whole entry): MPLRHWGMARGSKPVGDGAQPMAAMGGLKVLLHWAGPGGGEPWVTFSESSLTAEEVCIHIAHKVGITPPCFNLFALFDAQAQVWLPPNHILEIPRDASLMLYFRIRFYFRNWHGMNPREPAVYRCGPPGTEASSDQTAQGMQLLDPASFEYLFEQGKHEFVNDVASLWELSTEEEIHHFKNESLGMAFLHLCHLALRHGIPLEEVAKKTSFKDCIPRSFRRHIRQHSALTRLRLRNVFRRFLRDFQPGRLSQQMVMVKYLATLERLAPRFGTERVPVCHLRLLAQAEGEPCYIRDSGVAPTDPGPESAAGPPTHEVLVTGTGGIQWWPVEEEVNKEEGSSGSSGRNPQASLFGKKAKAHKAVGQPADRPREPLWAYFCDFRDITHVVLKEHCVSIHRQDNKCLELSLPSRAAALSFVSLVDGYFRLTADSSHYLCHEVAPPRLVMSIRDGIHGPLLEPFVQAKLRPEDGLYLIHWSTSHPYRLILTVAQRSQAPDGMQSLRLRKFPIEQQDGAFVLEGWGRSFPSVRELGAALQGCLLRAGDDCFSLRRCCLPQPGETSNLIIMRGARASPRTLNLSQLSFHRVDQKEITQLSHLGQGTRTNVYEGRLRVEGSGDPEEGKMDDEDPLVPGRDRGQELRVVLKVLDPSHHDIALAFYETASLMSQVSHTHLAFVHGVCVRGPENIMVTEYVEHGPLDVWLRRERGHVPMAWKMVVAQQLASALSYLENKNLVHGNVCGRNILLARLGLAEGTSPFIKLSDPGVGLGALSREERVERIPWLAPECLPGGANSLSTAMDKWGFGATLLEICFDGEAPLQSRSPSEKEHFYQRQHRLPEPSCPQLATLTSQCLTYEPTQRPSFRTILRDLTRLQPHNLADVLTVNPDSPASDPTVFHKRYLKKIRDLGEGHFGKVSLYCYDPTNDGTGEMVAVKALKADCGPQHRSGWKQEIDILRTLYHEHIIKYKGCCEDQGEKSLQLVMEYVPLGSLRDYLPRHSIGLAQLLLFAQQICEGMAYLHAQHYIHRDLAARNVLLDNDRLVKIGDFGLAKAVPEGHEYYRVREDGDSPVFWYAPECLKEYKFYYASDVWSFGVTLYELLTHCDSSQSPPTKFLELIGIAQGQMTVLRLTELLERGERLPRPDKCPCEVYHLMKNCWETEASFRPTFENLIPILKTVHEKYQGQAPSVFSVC
Structures can show the parent of a compound that is named as a salt.
Field: pIC50. Provide a value for each of the molecules that follow.
Kindly note that pIC50 refers to -log10 of the concentration in mol/L and answer with the value alone.

Please give the measured pIC50 for this molecule: Cc1cc(N2CCOCC2)c2cc1Nc1ncc(Cl)c(n1)Nc1cccc(c1)CC2 [Example A6, trifluoroacetate] 7.12

Try this molecule next: Cn1cncc1C(=O)N1CCC(CC(=O)Nc2ccc3cc2CCc2cncc(c2)Nc2ncc(Cl)c(n2)N3)CC1 [Example A134, bis(trifluoroacetate)] 7.60

Try this molecule next: O=C(CC1CCNCC1)Nc1ccc2cc1CCc1cncc(c1)Nc1ncc(Cl)c(n1)N2 [Example A71, tris(trifluoroacetate)] 7.24

Try this molecule next: C[N+]1(C)CCC(CC(=O)Nc2ccc3cc2CCc2cccc(c2)Nc2ncc(Cl)c(n2)N3)CC1 6.83

Try this molecule next: O=C(CCNC(=O)Nc1ccccc1)Nc1ccc2cc1CCc1cccc(c1)Nc1ncc(Cl)c(n1)N2 [Example A67, trifluoroacetate] 8.00

Try this molecule next: O=C(CC1CCN(C(=O)c2cnon2)CC1)Nc1ccc2cc1CCc1cncc(c1)Nc1ncc(Cl)c(n1)N2 [Example A138, bis(trifluoroacetate)] 8.10

* * *

target: human JAK1 (a.a. 837-1142) (Homo sapiens); construct: human JAK1 (a.a. 837-1142); His tag (N); made in house; host or cells: insect cells (baculovirus); experiment: In vitro JAK kinase assay (HTRF, phosphorylation of a biotinylated peptide), JAK1; format: biochemical; conditions: Table B1; read-out: JAK1 IC50
Sequence (P23458 849-1154): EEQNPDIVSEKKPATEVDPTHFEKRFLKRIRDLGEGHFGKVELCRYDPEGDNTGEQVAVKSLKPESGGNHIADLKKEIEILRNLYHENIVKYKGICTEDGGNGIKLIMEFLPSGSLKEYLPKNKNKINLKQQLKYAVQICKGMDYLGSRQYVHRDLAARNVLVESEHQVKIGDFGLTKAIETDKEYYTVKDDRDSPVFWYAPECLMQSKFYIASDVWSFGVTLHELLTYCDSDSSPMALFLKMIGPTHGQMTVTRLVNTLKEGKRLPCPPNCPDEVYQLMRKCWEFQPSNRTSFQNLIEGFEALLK
pIC50: −log10 of the molar value. Structures can show the parent of a compound that is named as a salt.
Could you label it true if measured pIC50 is 8 or higher, and false otherwise?

State whether the measured pIC50 reaches 8, counting equality as reaching it, for COc1ccccc1N1CCN(C(=O)Nc2ccc3cc2CCc2cncc(c2)Nc2ncc(Cl)c(n2)N3)CC1 [Example B298, tris(trifluoroacetate)] false

Try this compound next: O=C(Nc1ccc2cc1CCc1cccc(c1)Nc1ncc(Cl)c(n1)N2)N[C@H]1CCN(c2ncccn2)C1 [Example B262, bis(trifluoroacetate)] true

Try this compound next: CCC(C)C(=O)Nc1ccc2cc1CCc1cccc(c1)Nc1ncc(Cl)c(n1)N2 (stereo not shown) [Example B61, trifluoroacetate] false

Try this compound next: CC(C)(C)OC(=O)NCCNC(=O)Nc1ccc2cc1CCc1cccc(c1)Nc1ncc(Cl)c(n1)N2 true

Try this compound next: COc1cccc(S(=O)(=O)Nc2ccc3cc2CCc2cccc(c2)Nc2ncc(Cl)c(n2)N3)c1 [Example B157, trifluoroacetate] true

Try this compound next: O=C(Nc1ccc2cc1CCc1cncc(c1)Nc1ncc(Cl)c(n1)N2)N1CCC(c2ccccc2)CC1 [Example B314, bis(trifluoroacetate)] false

Try this compound next: NC1CCN(c2ccnc(Nc3ccc4cc3CCc3cncc(c3)Nc3ncc(Cl)c(n3)N4)n2)CC1 [Example B282, (trifluoroacetate)] false

Try this compound next: O=C(Nc1ccc2cc1CCc1cccc(c1)Nc1ncc(Cl)c(n1)N2)C1CCCCC1 [Example B63, trifluoroacetate] false

Try this compound next: COc1cccc(C(=O)Nc2ccc3cc2CCc2cccc(c2)Nc2ncc(Cl)c(n2)N3)c1 [Example B66, trifluoroacetate] true

Try this compound next: O=C(Nc1ccccc1)c1ccc2cc1CCc1cccc(c1)Nc1ncc(Cl)c(n1)N2 [Example B200, trifluoroacetate] false

Try this compound next: Cc1cccc(NC(=O)Nc2ccc3cc2CCc2cccc(c2)Nc2ncc(Cl)c(n2)N3)c1 [Example B90, trifluoroacetate] true

* * *

biological target: Recombinant Human Anaplastic Lymphoma Kinase (Homo sapiens, UniProt Q9UM73); construct: purchased Invitrogen, Carlsbad, Calif; test: ALK HTRF kinase assay; assay type: biochemical
Sequence (Q9UM73 19-1620): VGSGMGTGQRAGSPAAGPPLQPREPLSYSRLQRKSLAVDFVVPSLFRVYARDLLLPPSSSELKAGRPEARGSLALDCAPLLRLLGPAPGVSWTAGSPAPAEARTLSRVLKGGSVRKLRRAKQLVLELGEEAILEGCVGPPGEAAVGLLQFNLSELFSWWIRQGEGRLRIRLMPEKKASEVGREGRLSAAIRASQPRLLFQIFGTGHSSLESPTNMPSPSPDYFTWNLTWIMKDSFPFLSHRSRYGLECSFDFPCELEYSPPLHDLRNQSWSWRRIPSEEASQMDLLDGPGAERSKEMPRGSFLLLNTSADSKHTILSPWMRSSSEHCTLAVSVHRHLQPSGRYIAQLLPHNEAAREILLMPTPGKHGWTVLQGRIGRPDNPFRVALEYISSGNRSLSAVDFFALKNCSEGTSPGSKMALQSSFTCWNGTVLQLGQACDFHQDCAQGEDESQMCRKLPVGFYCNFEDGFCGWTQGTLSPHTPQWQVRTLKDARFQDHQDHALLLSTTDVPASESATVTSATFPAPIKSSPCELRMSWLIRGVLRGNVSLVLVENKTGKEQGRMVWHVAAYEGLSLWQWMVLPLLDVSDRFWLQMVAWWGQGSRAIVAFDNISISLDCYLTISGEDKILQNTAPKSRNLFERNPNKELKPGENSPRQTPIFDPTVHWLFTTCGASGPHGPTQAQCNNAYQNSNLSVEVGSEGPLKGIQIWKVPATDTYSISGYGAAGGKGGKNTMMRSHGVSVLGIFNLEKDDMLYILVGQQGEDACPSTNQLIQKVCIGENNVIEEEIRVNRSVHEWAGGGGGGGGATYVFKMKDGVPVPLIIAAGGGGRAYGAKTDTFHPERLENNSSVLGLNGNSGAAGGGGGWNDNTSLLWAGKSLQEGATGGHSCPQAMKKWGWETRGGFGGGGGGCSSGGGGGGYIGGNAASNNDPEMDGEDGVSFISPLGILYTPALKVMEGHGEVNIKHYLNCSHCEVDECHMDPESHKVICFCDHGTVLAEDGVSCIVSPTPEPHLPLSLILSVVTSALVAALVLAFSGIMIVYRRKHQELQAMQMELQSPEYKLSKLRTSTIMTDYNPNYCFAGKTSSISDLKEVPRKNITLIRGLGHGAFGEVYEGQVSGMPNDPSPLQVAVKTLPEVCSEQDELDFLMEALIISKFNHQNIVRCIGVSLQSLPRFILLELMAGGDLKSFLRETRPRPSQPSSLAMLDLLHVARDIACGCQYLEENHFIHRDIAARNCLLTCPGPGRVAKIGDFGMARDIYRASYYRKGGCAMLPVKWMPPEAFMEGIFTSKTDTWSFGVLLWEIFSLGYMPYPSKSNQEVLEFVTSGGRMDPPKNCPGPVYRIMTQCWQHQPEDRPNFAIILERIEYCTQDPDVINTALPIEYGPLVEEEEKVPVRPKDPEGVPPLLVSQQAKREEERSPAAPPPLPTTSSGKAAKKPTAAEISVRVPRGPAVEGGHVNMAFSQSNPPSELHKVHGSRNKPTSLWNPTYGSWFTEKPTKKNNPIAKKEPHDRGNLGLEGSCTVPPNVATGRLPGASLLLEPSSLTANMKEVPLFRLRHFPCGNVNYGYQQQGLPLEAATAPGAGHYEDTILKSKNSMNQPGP
pIC50: −log10 of the molar value. Counter-ions that a name gives are not always drawn.
Field: pIC50. Provide a value for each of the compounds that follow.

Please give the measured pIC50 for this compound: O=S1(=O)Cc2cccc(c2)Nc2nc(ncc2Cl)Nc2cccc(c2)N1 [Example C8, trifluoroacetate] < 6.00

Try this compound next: O=C1NCc2cccc(c2)Nc2nc(ncc2Cl)Nc2cccc1c2 [Example C5, hydrochloride] < 6.00

Try this compound next: O=C1Cc2cccc(c2)Nc2nc(ncc2Cl)Nc2cccc(c2)N1 [Example C11, trifluoroacetate] < 5.00

Try this compound next: O=C1Cc2cccc(c2)Nc2ncc(Cl)c(n2)Nc2cccc(c2)N1 [Example C10, trifluoroacetate] < 5.00

Try this compound next: O=S1(=O)NCc2cccc(c2)Nc2nc(ncc2Cl)Nc2cccc1c2 5.18

Try this compound next: O=C1NCc2cccc(c2)Nc2ncc(Cl)c(n2)Nc2cccc1c2 < 6.00

Try this compound next: O=S1(=O)Nc2cccc(c2)Nc2nc(ncc2Cl)Nc2cccc1c2 [Example C6, trifluoroacetate] < 5.00

Try this compound next: O=C1Nc2cccc(c2)Nc2ncc(Cl)c(n2)Nc2cccc1c2 [Example C1, hydrochloride] < 5.00

* * *

Field: IC50. Provide a value for each of the molecules that follow.
target: TYK2 (Homo sapiens, UniProt P29597); assay: TYK2 kinase inhibition (Table A1); format: biochemical
Counter-ions that a name gives are not always drawn.
Give the number; nM is assumed, so skip it.

Please give the measured IC50 for this molecule: Clc1cnc2nc1Nc1cccc(c1)CCc1cncc(c1)N2 [Example C19, bis(trifluoroacetate)] 10

Try this molecule next: O=C(Nc1ccc2cc1CCc1cccc(c1)Nc1ncc(Cl)c(n1)N2)C1CCCN(C(=O)NC2CCCC2)C1 (stereo not shown) [Example A62, trifluoroacetate] 12

Try this molecule next: Cc1cc(C(=O)N2CCC(CC(=O)Nc3ccc4cc3CCc3cccc(c3)Nc3ncc(Cl)c(n3)N4)CC2)no1 [Example A86, trifluoroacetate] 1.5

Try this molecule next: N#Cc1ccccc1NC(=O)N1CCC(CC(=O)Nc2ccc3cc2CCc2cncc(c2)Nc2ncc(Cl)c(n2)N3)CC1 [Example A141, bis(trifluoroacetate)] 13

Try this molecule next: CCCC(=O)N1Cc2cccc(c2)Nc2ncc(Cl)c(n2)Nc2cccc1c2 1420

* * *

target: human JAK3 (a.a. 781-1124) (Homo sapiens, UniProt P52333); construct: JAK3 (a.a. 781-1124); His tag (N); made in house; host or cells: insect cells (baculovirus); assay: In vitro JAK kinase assay (HTRF, phosphorylation of a biotinylated peptide), JAK3; assay type: biochemical
Sequence (P52333 781-1124): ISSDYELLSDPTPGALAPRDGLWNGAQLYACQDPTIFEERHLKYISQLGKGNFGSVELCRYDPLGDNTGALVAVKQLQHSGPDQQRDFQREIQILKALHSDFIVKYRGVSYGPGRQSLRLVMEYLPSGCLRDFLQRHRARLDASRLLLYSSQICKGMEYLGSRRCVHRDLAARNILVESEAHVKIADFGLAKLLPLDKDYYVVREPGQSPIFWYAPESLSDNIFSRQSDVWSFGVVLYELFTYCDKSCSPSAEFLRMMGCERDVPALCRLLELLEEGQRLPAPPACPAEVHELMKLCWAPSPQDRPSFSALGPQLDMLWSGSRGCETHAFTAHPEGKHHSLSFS
Counter-ions that a name gives are not always drawn.
Mark each entry yes (1) if its IC50 sits below 1000 nM, and no (0) for all others.

Does the reported IC50 of O=C(Cc1ccncc1)Nc1ccc2cc1CCc1cccc(c1)Nc1ncc(Cl)c(n1)N2 [Example C40, bis(trifluoroacetate)] stay below 1000 nM? yes (1)

Try this compound next: O=C1Cc2cccc(c2)Nc2nc(ncc2Cl)Nc2cccc(c2)N1 [Example C11, trifluoroacetate] no (0)

Try this compound next: O=C(Cc1cccnc1)Nc1ccc2cc1CCc1cccc(c1)Nc1ncc(Cl)c(n1)N2 [Example C39, bis(trifluoroacetate)] no (0)

Try this compound next: O=C(c1ccccn1)N1Cc2cccc(c2)Nc2ncc(Cl)c(n2)Nc2cccc1c2 no (0)

Try this compound next: Cc1ccc(C(=O)N2Cc3cccc(c3)Nc3ncc(Cl)c(n3)Nc3cccc2c3)cc1 no (0)

Try this compound next: O=C(Cc1noc2ccccc12)Nc1ccc2cc1CCc1cccc(c1)Nc1ncc(Cl)c(n1)N2 [Example C45, trifluoroacetate] no (0)

Try this compound next: O=C(Cc1c[nH]cn1)Nc1ccc2cc1CCc1cccc(c1)Nc1ncc(Cl)c(n1)N2 [Example C33, bis(trifluoroacetate)] yes (1)

Try this compound next: O=C(Cc1csc2ccccc12)Nc1ccc2cc1CCc1cccc(c1)Nc1ncc(Cl)c(n1)N2 [Example C35, trifluoroacetate] no (0)

Try this compound next: Cc1ncsc1CCC(=O)Nc1ccc2cc1CCc1cccc(c1)Nc1ncc(Cl)c(n1)N2 [Example C48, trifluoroacetate] no (0)

Try this compound next: O=C(Cc1ccccn1)Nc1ccc2cc1CCc1cccc(c1)Nc1ncc(Cl)c(n1)N2 [Example C41, bis(trifluoroacetate)] no (0)

Try this compound next: O=C1Nc2cccc(c2)Nc2ncc(Cl)c(n2)Nc2cccc1c2 [Example C1, hydrochloride] no (0)

Try this compound next: Clc1cnc2nc1Nc1cccc(c1)CCc1cccc(n1)N2 no (0)

Try this compound next: O=C(Cc1ccsc1)Nc1ccc2cc1CCc1cccc(c1)Nc1ncc(Cl)c(n1)N2 [Example C32, trifluoroacetate] yes (1)

Try this compound next: Fc1cnc2nc1Nc1cccc(c1)CCc1cc(ccn1)N2 yes (1)

Try this compound next: Cc1nc(CC(=O)Nc2ccc3cc2CCc2cccc(c2)Nc2ncc(Cl)c(n2)N3)c(C)s1 [Example C46, trifluoroacetate] no (0)

Try this compound next: O=S1(=O)Nc2cccc(c2)Nc2nc(ncc2Cl)Nc2cccc1c2 [Example C6, trifluoroacetate] yes (1)

Try this compound next: Clc1cnc2nc1Nc1cccc(c1)CCc1cncc(c1)N2 [Example C19, bis(trifluoroacetate)] yes (1)

Try this compound next: O=C(Cc1cccs1)Nc1ccc2cc1CCc1cccc(c1)Nc1ncc(Cl)c(n1)N2 [Example C42, trifluoroacetate] yes (1)
